From: patent US9695155B2

System: oilseed rape
Experiment: Test C postemergence
Format: in vivo, Brassica napus
Conditions: 125 g ai/ha, postemergence
Reported Plant response rating (0 to 100), Oilseed Rape values for the following molecules.
Number, no unit, nothing else.

Some molecules with known Plant response rating (0 to 100), Oilseed Rape results, for comparison:
>  <chemical-structure>
N#Cc1cccc(Oc2ncc(Cl)cn2)c1-n1cc(OC(F)F)cn1

>  <observed-value>
80

$$$$
>  <chemical-structure>
N#Cc1cccc(Oc2ncc(Br)cn2)c1-n1cc(Br)cn1

>  <observed-value>
80

$$$$
>  <chemical-structure>
Fc1cnc(Oc2ccccc2-n2cc(C(F)(F)F)cn2)nc1

>  <observed-value>
55

$$$$

Now examine the next entry.
**Q:** Name the reported Plant response rating (0 to 100), Oilseed Rape value associated with the molecule "CC(C)c1cnn(-c2c(C#N)cccc2Oc2ncc(Cl)cn2)c1"
**A:** 15

###

Reported Wheat plant response rating values for the following molecules.
Test system: wheat
Experiment: Test A postemergence
Format: in vivo, Triticum aestivum
Details: 125 g ai/ha, 0 to 100 scale where 0 is no effect and 100 is complete control
Number, no unit, nothing else.

**Q:** Name the reported Wheat plant response rating value associated with the molecule "FC(F)c1cccc(Oc2ncc(Cl)cn2)c1-n1cc(Cl)cn1"
**A:** 0

**Q:** Query "N#Cc1cnn(-c2c(C#N)cccc2Oc2ncc(Br)cn2)c1" next
**A:** 10

**Q:** Query "C#Cc1cccc(Oc2ncc(Cl)cn2)c1-n1cc(Br)cn1" next
**A:** 0

**Q:** Query "FC(F)c1cccc(Oc2ncc(Cl)cn2)c1-n1cc(C(F)(F)F)cn1" next
**A:** 30

**Q:** Query "Fc1cc(Oc2ncc(Cl)cn2)c(-n2cc(Br)cn2)cc1F" next
**A:** 0

**Q:** Query "O=Cc1cccc(Oc2ncc(Cl)cn2)c1-n1cc(I)cn1" next
**A:** 0

**Q:** Query "COc1cnc(Oc2ccccc2-n2cc(Br)cn2)nc1" next
**A:** 20

**Q:** Query "N#Cc1cnc(Oc2ccccc2-n2cccn2)nc1" next
**A:** 0

**Q:** Query "COc1cccc(Oc2ncc(Cl)cn2)c1-n1cc(Cl)cn1" next
**A:** 0

**Q:** Query "Cc1cnc(Oc2cccc(C#N)c2-n2cc(C(F)(F)F)cn2)nc1" next
**A:** 40

**Q:** Query CC(F)c1cccc(Oc2ncc(Cl)cn2)c1-n1cc(Br)cn1 (stereo not drawn) next
**A:** 0

**Q:** Query "Fc1cnc(Oc2cccc(C(F)F)c2-n2cc(C(F)(F)F)cn2)nc1" next
**A:** 70

###

Reported Plant response rating, Morningglory values for the following compounds.
Test system: morningglory
Test: Test C postemergence
Assay type: in vivo, Ipomoea coccinea
Conditions: Postemergence, 62 g ai/ha; scale 0 to 100 (0 no effect, 100 complete control); 13 to 15 days

>  <chemical-structure>
Fc1cnc(Oc2ccccc2-n2cc(C(F)F)cn2)nc1

>  <property-measured>
Plant response rating, Morningglory

>  <observed-value>
25

$$$$
>  <chemical-structure>
FCc1cccc(Oc2ncc(Cl)cn2)c1-n1cc(I)cn1

>  <property-measured>
Plant response rating, Morningglory

>  <observed-value>
65

$$$$
>  <chemical-structure>
N#Cc1cnn(-c2c(C#N)cccc2Oc2ncc(Cl)cn2)c1

>  <property-measured>
Plant response rating, Morningglory

>  <observed-value>
80

$$$$
>  <chemical-structure>
Clc1cnc(Oc2cccc(Br)c2-n2cc(Cl)cn2)nc1

>  <property-measured>
Plant response rating, Morningglory

>  <observed-value>
50

$$$$

**Q:** Name the reported Plant response rating, Morningglory value associated with the compound "Clc1cnc(Oc2ccccc2-n2cc(Br)nn2)nc1"
**A:** 70

**Q:** Query "FC(F)Oc1cnn(-c2c(Cl)cccc2Oc2ncc(Cl)cn2)c1" next
**A:** 85

**Q:** Query "FC(F)c1cnn(-c2c(Cl)cccc2Oc2ncc(Cl)cn2)c1" next
**A:** 35

###

System: giant foxtail
Assay: Test A preemergence
Type: in vivo, Setaria faberii
Settings: 500 g ai/ha, 0 to 100 scale where 0 is no effect and 100 is complete control
Reported Foxtail, Giant plant response rating values for the following compounds.
Number, no unit, nothing else.

Some compounds with known Foxtail, Giant plant response rating results, for comparison:
>  <compound>
FC(F)c1cccc(Oc2ncc(Cl)cn2)c1-n1cc(C(F)(F)F)cn1 [Compound 170]

>  <property-measured>
Foxtail, Giant plant response rating

>  <observed-value>
90

$$$$
>  <compound>
NC(=S)c1cccc(Oc2ncc(Cl)cn2)c1-n1cc(Cl)cn1 [Compound 292]

>  <property-measured>
Foxtail, Giant plant response rating

>  <observed-value>
100

$$$$
>  <compound>
Clc1cnc(Oc2cccc(Cl)c2-n2cc(Cl)cn2)nc1 [Compound 220]

>  <property-measured>
Foxtail, Giant plant response rating

>  <observed-value>
100

$$$$
>  <compound>
C#Cc1cccc(Oc2ncc(Cl)cn2)c1-n1cc(Br)cn1 [Compound 199]

>  <property-measured>
Foxtail, Giant plant response rating

>  <observed-value>
100

$$$$
>  <compound>
Clc1cnc(Oc2ccccc2-n2cc(-c3ccccn3)cn2)nc1 [Compound 190]

>  <property-measured>
Foxtail, Giant plant response rating

>  <observed-value>
80

$$$$
>  <compound>
Fc1cccc(Oc2ncc(Cl)cn2)c1-n1cc(Cl)cn1 [Compound 177]

>  <property-measured>
Foxtail, Giant plant response rating

>  <observed-value>
100

$$$$

Now examine the next entry.
**Q:** Name the reported Foxtail, Giant plant response rating value associated with the compound Fc1cnc(Oc2cccc(C(F)F)c2-n2cc(C(F)(F)F)cn2)nc1 [Compound 164]
**A:** 100

###

Test system: morningglory
Experiment: Test C postemergence
Assay type: in vivo, Ipomoea coccinea
Settings: Postemergence, 31 g ai/ha; scale 0 to 100 (0 no effect, 100 complete control); 13 to 15 days
property-measured: Plant response rating, Morningglory
Number, no unit, nothing else.

Some compounds with known Plant response rating, Morningglory results, for comparison:
>  <chemical-structure>
Cc1cnc(Oc2cccc(C#N)c2-n2cc(C#N)cn2)nc1

>  <Plant response rating, Morningglory>
60

$$$$
>  <chemical-structure>
N#Cc1cccc(Oc2ncc(Cl)cn2)c1-n1cc(Cl)cn1

>  <Plant response rating, Morningglory>
75

$$$$
>  <chemical-structure>
CC(C)c1cnn(-c2c(C#N)cccc2Oc2ncc(Cl)cn2)c1

>  <Plant response rating, Morningglory>
60

$$$$

Now examine the next entry.
**Q:** Form entry - test system: morningglory; read-out: Plant response rating, Morningglory; compound: "N#Cc1cccc(Oc2ncc(Br)cn2)c1-n1cc(Br)cn1"
**A:** 45

###

System: wheat, winter
Experiment: Test C preemergence
Format: in vivo, Triticum aestivum
Conditions: 125 g ai/ha, preemergence; scale 0 (no effect) to 100 (complete control)
Reported Wheat plant response rating values for the following compounds.
Number, no unit, nothing else.

Some compounds with known Wheat plant response rating results, for comparison:
>  <chemical-structure>
Fc1cnc(Oc2cccc(C(F)F)c2-n2cc(C(F)(F)F)cn2)nc1

>  <Wheat plant response rating>
35

$$$$
>  <chemical-structure>
CC(C)c1cnn(-c2c(C#N)cccc2Oc2ncc(Cl)cn2)c1

>  <Wheat plant response rating>
5

$$$$
>  <chemical-structure>
FC(F)Oc1cnn(-c2c(Cl)cccc2Oc2ncc(Cl)cn2)c1

>  <Wheat plant response rating>
25

$$$$

**Q:** Name the reported Wheat plant response rating value associated with the compound "N#Cc1cccc(Oc2ncc(Cl)cn2)c1-n1cc(Cl)cn1"
**A:** 30

###

Tested on: corn
Experiment: Test A postemergence
Format: in vivo, Zea mays
Conditions: 125 g ai/ha, 0 to 100 scale where 0 is no effect and 100 is complete control
Source text: […]
Reported Plant response rating, Corn values for the following compounds.
Number, no unit, nothing else.

Some compounds with known Plant response rating, Corn results, for comparison:
>  <chemical-structure>
N#Cc1cccc(Oc2ncc(Br)cn2)c1-n1cc(Cl)cn1

>  <property-measured>
Plant response rating, Corn

>  <observed-value>
30

$$$$
>  <chemical-structure>
N#Cc1cnn(-c2ccccc2Oc2ncc(Cl)cn2)c1

>  <property-measured>
Plant response rating, Corn

>  <observed-value>
0

$$$$
>  <chemical-structure>
Fc1cnc(Oc2cccc(C(F)F)c2-n2cc(Cl)cn2)nc1

>  <property-measured>
Plant response rating, Corn

>  <observed-value>
30

$$$$

**Q:** Form entry - test system: corn; read-out: Plant response rating, Corn; compound: "Clc1cnc(Oc2ccccc2-n2cnc(Br)c2)nc1"
**A:** 10

**Q:** Query "FC(F)(F)c1cccc(Oc2ncc(Br)cn2)c1-n1cc(Br)cn1" next
**A:** 20

**Q:** Query "Fc1cnc(Oc2ccccc2-n2cc(C(F)(F)F)cn2)nc1" next
**A:** 40

**Q:** Query "Fc1cnc(Oc2cccc(Cl)c2-n2cc(OC(F)F)cn2)nc1" next
**A:** 20
